tested on: HT-29; assay: cells; settings: read-out: HT29 LC50; HT29; SRB, 48 hours exposure
measurement_type: CC50
Report the figure along with its unit, number first.

// lookup CC50 | system=HT-29 | key= COC1=C(C)C(=O)C2=C(C1=O)C1C3C4SCC(NC(C)=O)C(=O)OCC(c5c6c(c(C)c(OC(C)=O)c54)OCO6)N3C(O)C(C2)N1C (stereo not shown) [ET-637-quinone, ecteinascidin 637 quinone] 2260 nM

----------
Test system: A-549
Test: cells
Conditions: read-out: LC50 A549; A549; SRB, 48 hours exposure
Procedure: This form of the assay employs 96 well cell culture microplates of 9 mm diameter (Faircloth, 1988; Mosmann, 1983). Most of the cell lines are obtained from American Type Culture Collection (ATCC) derived from different human cancer types. […] The values for mean +/− SD of data from triplicate wells are calculated. Some parameters for cellular responses can be calculated: GI=growth inhibition, TGI=total growth inhibition (cytostatic effect) and LC=cell killing (cytotoxic effect).
measurement_type: CC50
Report the figure along with its unit, number first.

{"columns": ["molecule", "measurement_type", "experimental_result"],
 "data": [
  ["C=CCN1C2Cc3cc(C)c(OC)c(O)c3C1C1C3SCC(NC(=O)CC)C(=O)OCC(c4c5c(c(C)c(OC(C)=O)c43)OCO5)N1C2C#N (stereo not shown) [compound 27]", "CC50", "1.89 µM"],
  ["C=CCN1C2Cc3cc(C)c(OC)c(O)c3C1C1C3SCC(NC(C)=O)C(=O)OCC(c4c5c(c(C)c(OC(C)=O)c43)OCO5)N1C2C#N (stereo not shown) [compound 24]", "CC50", "0.0974 µM"],
  ["COc1c(C)cc2c(c1O)C1C3C4SCC(NC(C)=O)C(=O)OCC(c5c6c(c(C)c(OC(C)=O)c54)OCO6)N3C(C#N)C(C2)N1C(C)=O (stereo not shown) [compound 35]", "CC50", "12.1 µM"]
]}

Can you share its CC50? I mean this molecule: COCCOCOc1c(OC)c(C)cc2c1[C@H]1N[C@@H](C2)[C@H](C#N)N2C1CC1(O)C(=O)C(C)=C3OCOC3=C1[C@@H]2CO[Si](c1ccccc1)(c1ccccc1)C(C)(C)C (stereo partly shown) [compound 7] 6.61 µM

----------
tested on: HeLa-APL; assay: Inhibition of cells growth by colorimetric assay (SRB); conditions: Homo sapiens, 48 h, read-out: HELA-APL TGI
measurement_type: IC (TGI)
Report the figure along with its unit, number first.

Worked cases, answers included:
{"columns": ["molecule", "IC (TGI)"],
 "data": [
  ["COc1cc2c(cc1O)CCN[C@]21CS[C@@H]2c3c(OC(=O)/C=C/c4ccccc4)c(C)c4c(c3[C@H](COC1=O)N1C2[C@@H]2N[C@@H](Cc3cc(C)c(OC)c(O)c32)[C@@H]1C#N)OCO4 (some centres unmarked)", "6.18 nM"],
  ["COc1c(C)cc2c(c1O)[C@H]1N[C@@H](C2)[C@H](O)N2C1[C@@H]1SCC(NC(C)=O)C(=O)OC[C@H]2c2c3c(c(C)c(OC(C)=O)c21)OCO3 (some centres unmarked)", "4.3 nM"],
  ["C=CCN1[C@@H]2c3c(cc(C)c(OC)c3O)C[C@H]1[C@H](C#N)N1C2[C@@H]2SC[C@]3(NCCc4cc(OC(=O)OC(C)(C)C)c(OC)cc43)C(=O)OC[C@H]1c1c3c(c(C)c(OC(=O)CCCCCCC)c12)OCO3 (some centres unmarked)", "3830 nM"],
  ["COC1=C(C)C(=O)C2=C(C1=O)C1C3[C@@H]4SCC(=O)C(=O)OC[C@@H](c5c6c(c(C)c(OC(C)=O)c54)OCO6)N3[C@@H](O)[C@H](C2)N1C (some centres unmarked)", "674 nM"]
]}

Proceeding to the next molecule to report its IC (TGI).
Can you share its IC (TGI)? I mean this molecule: COc1c(C)cc2c(c1O)[C@H]1N[C@@H](C2)[C@H](C#N)N2C1[C@@H]1SC[C@]3(NCCc4c3[nH]c3ccc(O)cc43)C(=O)OC[C@H]2c2c3c(c(C)c(OC(C)=O)c21)OCO3 (some centres unmarked) 5.6 nM

----------
system: HeLa-APL; test: Inhibition of cells growth by colorimetric assay (SRB); details: read-out: HELA-APL LC50; SRB assay, 48 hours exposure, HELA-APL, cell killing
measurement_type: CC50 (µM)
State just the number; it will be interpreted in µM.

Can you share its CC50? I mean this compound: COc1c(C)cc2c(c1O)C1C3C4SCC(NC(C)=O)C(=O)OCC(c5c6c(c(C)c(OC(C)=O)c54)OCO6)N3C(C#N)C(C2)N1C(C)=O (stereo not shown) [compound 35] 5.92

----------
tested on: SK-MEL-28; test: Inhibition of cells growth by colorimetric assay (SRB); conditions: read-out: LC50 MEL-28; MEL-28; SRB, 48 hours exposure
measurement_type: CC50 (µM)
State just the number; it will be interpreted in µM.

{"columns": ["compound", "experimental_result"],
 "data": [
  ["C=CCN1C2Cc3cc(C)c(OC)c(O)c3C1C1C3SCC(NC(=O)CC)C(=O)OCC(c4c5c(c(C)c(OC(C)=O)c43)OCO5)N1C2C#N (stereo not drawn) [compound 27]", 0.594],
  ["C=CCN1C2Cc3cc(C)c(OC)c(O)c3C1C1C3SCC(NC(C)=O)C(=O)OCC(c4c5c(c(C)c(OC(C)=O)c43)OCO5)N1C2C#N (stereo not drawn) [compound 24]", 0.0909]
]}

Proceeding to the next compound to report its CC50.
Can you share its CC50? I mean this compound: COc1c(C)cc2c(c1O)C1C3C4SCC(NC(C)=O)C(=O)OCC(c5c6c(c(C)c(OC(C)=O)c54)OCO6)N3C(C#N)C(C2)N1C(C)=O (stereo not drawn) [compound 35] 3.19

----------
Listed here are compounds together with their documented GI50.
system: IGROV-1; assay: Inhibition of cells growth by colorimetric assay (SRB); conditions: Homo sapiens, IGROV-1, 48 h, read-out: IGROV GI50
State just the number; it will be interpreted in nM.

{"columns": ["compound", "GI50 (nM)"],
 "data": [
  ["COc1cc2c(cc1O)CCN[C@]21C[S+]([O-])[C@@H]2c3c(OC(C)=O)c(C)c4c(c3[C@H](COC1=O)N1C2C2c3c(cc(C)c(OC)c3O)C[C@@H]([C@@H]1O)N2C)OCO4 (stereo partly drawn) [Et-759B]", 22.9]
]}

Can you share its GI50? I mean this compound: C=CCN1[C@@H]2c3c(cc(C)c(OC)c3O)C[C@H]1[C@H](C#N)N1C2[C@@H]2SC[C@]3(NCCc4cc(OC(=O)OC(C)(C)C)c(OC)cc43)C(=O)OC[C@H]1c1c3c(c(C)c(OC(=O)CCCCCCC)c12)OCO3 (stereo partly drawn) [compound 48] 3520

Can you share its GI50? I mean this compound: C=CCN1[C@@H]2c3c(cc(C)c(OC)c3O)C[C@H]1[C@H](C#N)N1C2[C@@H]2SC[C@]3(NCCc4c3[nH]c3ccc(C)cc43)C(=O)OC[C@H]1c1c3c(c(C)c(OC(C)=O)c12)OCO3 (stereo partly drawn) [compound 58] 93.9

Can you share its GI50? I mean this compound: COc1cc2c(cc1O)CCN[C@]21CS[C@@H]2c3c(OC(C)=O)c(C)c4c(c3[C@H](COC1=O)N1[C@@H]2[C@H]2c3c(cc(C)c(OC)c3O)C[C@@H]([C@@H]1O)N2C)OCO4 [Et-743, ecteinascidin 743, reference compound] 0.579

Can you share its GI50? I mean this compound: COc1c(C)cc2c(c1O)[C@H]1N[C@@H](C2)[C@H](O)N2C1[C@@H]1SC[C@]3(NCCc4c3[nH]c3ccc(O)cc43)C(=O)OC[C@H]2c2c3c(c(C)c(OC(C)=O)c21)OCO3 (stereo partly drawn) [compound 65] 4.07

Can you share its GI50? I mean this compound: C=CCN1[C@@H]2c3c(cc(C)c(OC)c3O)C[C@H]1[C@H](C#N)N1C2[C@@H]2SC[C@]3(NCCc4cc(OC(=O)OC(C)(C)C)c(OC)cc43)C(=O)OC[C@H]1c1c3c(c(C)c(O)c12)OCO3 (stereo partly drawn) [compound 46] 29.9

Can you share its GI50? I mean this compound: COc1c(C)cc2c(c1O)[C@H]1N[C@@H](C2)[C@H](C#N)N2C1[C@@H]1SCC(=O)C(=O)OC[C@H]2c2c3c(c(C)c(OC(C)=O)c21)OCO3 (stereo partly drawn) [compound 42] 28.6

Can you share its GI50? I mean this compound: C=CCN1[C@@H]2c3c(cc(C)c(OC)c3O)C[C@H]1[C@H](O)N1C2[C@@H]2SCC(NC(C)=O)C(=O)OC[C@H]1c1c3c(c(C)c(OC(C)=O)c12)OCO3 (stereo partly drawn) [compound 41] 15.7

Can you share its GI50? I mean this compound: CCCCCCCC(=O)Oc1c(C)c2c(c3c1[C@H]1SC[C@]4(NCCc5cc(O)c(OC)cc54)C(=O)OC[C@@H]3N3C1[C@@H]1N[C@@H](Cc4cc(C)c(OC)c(O)c41)[C@@H]3C#N)OCO2 (stereo partly drawn) [compound 52] 7.32
